Measured pIC50 values are reported for all entries that follow.
Molecular target: Cyclin-dependent kinase 2 (Homo sapiens, UniProt P24941)
pIC50: −log10 of the molar value.
parameter.measured: pIC50

>>> obs_value("Cc1ccc(-c2cc3c(NC(=O)C4CCCC4)ncnc3o2)cc1")
"< 4.70"
>>> obs_value("COc1ccc(-c2cc3c(NC(=O)CCSC)ncnc3o2)cc1")
"< 4.70"
>>> obs_value("O=C(Nc1ncnc2oc(-c3ccccc3)cc12)C1CCCC1")
"< 4.72"
>>> obs_value("O=C(Nc1ncnc2oc(-c3ccccc3)cc12)C1CC1")
"< 4.68"
>>> obs_value("CCCCCC(=O)Nc1ncnc2oc(-c3ccc(OC)cc3)cc12")
"< 4.72"
>>> obs_value("COc1ccc(-c2cc3c(NC(=O)CC4CCCC4)ncnc3o2)cc1")
"< 4.72"
>>> obs_value("O=C(Nc1ncnc2oc(-c3ccc(F)cc3)cc12)C1CC1")
"< 4.72"
>>> obs_value("O=C(Nc1ncnc2oc(-c3ccc(Cl)cc3)cc12)C1CC1")
"< 4.70"
>>> obs_value("COc1ccc(-c2cc3c(NC(=O)N4CCOCC4)ncnc3o2)cc1")
"< 4.70"
>>> obs_value("O=C(Nc1ncnc2oc(-c3cccnc3)cc12)C1CCCC1")
6.35
>>> obs_value("COc1ccc(-c2cc3c(NC(=O)N4CCCC4)ncnc3o2)cc1")
"< 4.68"
>>> obs_value("O=C(Nc1ncnc2oc(-c3ccc(Cl)cc3)cc12)C1CCCC1")
"< 4.70"
>>> obs_value("O=C(Nc1ncnc2oc(-c3cccnc3)cc12)C1CC1")
6.36
>>> obs_value("Cc1ccc(-c2cc3c(NC(=O)C4CC4)ncnc3o2)cc1 [GW819230X]")
"< 4.68"
>>> obs_value("COc1ccc(-c2cc3c(NC(=O)C4CCCC4)ncnc3o2)cc1")
"< 4.72"

###

Measured pIC50 values are reported for all entries that follow.
Molecular target: Vascular endothelial growth factor receptor 2 (Homo sapiens, UniProt P35968)
Sequence (P35968 whole entry): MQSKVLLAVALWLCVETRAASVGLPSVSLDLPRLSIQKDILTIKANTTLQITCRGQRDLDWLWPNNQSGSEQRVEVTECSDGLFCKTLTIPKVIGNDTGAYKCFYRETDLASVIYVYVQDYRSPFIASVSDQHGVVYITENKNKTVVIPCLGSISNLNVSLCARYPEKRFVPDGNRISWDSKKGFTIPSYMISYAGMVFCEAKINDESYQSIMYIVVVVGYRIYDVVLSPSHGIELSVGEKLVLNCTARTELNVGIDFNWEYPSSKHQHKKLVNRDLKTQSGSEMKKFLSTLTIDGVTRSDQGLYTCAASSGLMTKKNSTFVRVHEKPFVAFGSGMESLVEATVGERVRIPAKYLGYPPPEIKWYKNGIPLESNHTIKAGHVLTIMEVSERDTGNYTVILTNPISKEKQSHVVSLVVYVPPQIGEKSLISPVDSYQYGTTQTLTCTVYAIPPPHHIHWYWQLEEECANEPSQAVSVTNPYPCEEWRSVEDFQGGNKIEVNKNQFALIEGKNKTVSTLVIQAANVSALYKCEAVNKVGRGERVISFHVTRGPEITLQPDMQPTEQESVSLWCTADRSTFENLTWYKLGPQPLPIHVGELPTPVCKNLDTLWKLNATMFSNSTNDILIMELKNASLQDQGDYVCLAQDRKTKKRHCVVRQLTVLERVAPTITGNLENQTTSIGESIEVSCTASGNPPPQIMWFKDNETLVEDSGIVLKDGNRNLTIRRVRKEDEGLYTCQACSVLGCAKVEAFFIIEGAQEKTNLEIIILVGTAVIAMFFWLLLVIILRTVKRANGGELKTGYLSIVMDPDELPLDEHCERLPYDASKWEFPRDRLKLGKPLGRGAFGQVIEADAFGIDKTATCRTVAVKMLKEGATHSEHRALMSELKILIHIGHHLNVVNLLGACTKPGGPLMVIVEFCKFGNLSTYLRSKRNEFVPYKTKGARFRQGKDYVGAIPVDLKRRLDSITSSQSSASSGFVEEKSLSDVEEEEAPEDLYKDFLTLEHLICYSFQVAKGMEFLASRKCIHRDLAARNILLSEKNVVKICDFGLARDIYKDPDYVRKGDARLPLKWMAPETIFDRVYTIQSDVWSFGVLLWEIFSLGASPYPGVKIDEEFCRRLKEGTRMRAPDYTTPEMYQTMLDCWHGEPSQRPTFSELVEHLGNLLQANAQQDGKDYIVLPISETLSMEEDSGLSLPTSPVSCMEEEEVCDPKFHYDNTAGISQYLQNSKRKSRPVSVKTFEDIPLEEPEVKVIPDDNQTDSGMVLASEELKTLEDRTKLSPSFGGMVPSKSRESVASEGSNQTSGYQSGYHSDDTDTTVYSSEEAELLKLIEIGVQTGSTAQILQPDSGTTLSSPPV
pIC50: −log10 of the molar value.
parameter.measured: pIC50

>>> obs_value("O=C(Nc1ncnc2oc(-c3ccccc3)cc12)C1CC1")
6.08
>>> obs_value("COc1ccc(-c2cc3c(NC(=O)C4CCCC4)ncnc3o2)cc1")
5.99
>>> obs_value("Cc1ccc(-c2cc3c(NC(=O)C4CC4)ncnc3o2)cc1 [GW819230X]")
6.20
>>> obs_value("COc1ccc(-c2cc3c(NC(=O)C4CC4)ncnc3o2)cc1")
5.45

###

Target: Glycogen synthase kinase-3 beta (Homo sapiens)
Sequence (P49841 whole entry): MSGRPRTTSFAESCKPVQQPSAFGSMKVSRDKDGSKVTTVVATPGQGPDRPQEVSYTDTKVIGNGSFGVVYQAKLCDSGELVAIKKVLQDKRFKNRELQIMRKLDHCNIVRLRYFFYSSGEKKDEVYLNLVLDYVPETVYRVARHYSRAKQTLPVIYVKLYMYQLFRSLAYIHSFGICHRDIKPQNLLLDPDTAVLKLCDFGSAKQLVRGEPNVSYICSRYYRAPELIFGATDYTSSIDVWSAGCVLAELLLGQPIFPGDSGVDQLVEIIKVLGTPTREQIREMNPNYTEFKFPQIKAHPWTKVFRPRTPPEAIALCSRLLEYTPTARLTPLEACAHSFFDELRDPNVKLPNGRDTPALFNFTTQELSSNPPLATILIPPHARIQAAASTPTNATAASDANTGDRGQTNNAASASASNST
Could you mark each record yes if its IC50 falls strictly under 500 nM, and no if it equals or exceeds it?

>>> class_name("COc1ccc(-c2cc3c(NC(=O)CCSC)ncnc3o2)cc1")
"no"
>>> class_name("O=C(Nc1ncnc2oc(-c3ccc(F)cc3)cc12)C1CC1")
"no"
>>> class_name("COc1ccc(-c2cc3c(NC(=O)C4CCCCC4)ncnc3o2)cc1")
"no"
>>> class_name("Cc1ccc(-c2cc3c(NC(=O)C4CCCC4)ncnc3o2)cc1")
"yes"
>>> class_name("COc1ccc(-c2cc3c(NC(=O)c4ccco4)ncnc3o2)cc1")
"no"
>>> class_name("O=C(Nc1ncnc2oc(-c3ccc(Cl)cc3)cc12)C1CC1")
"no"
>>> class_name("COc1ccc(-c2oc3ncnc(N)c3c2-c2cccnc2)cc1")
"yes"
>>> class_name("COc1ccc(-c2cc3c(NC(=O)N4CCCC4)ncnc3o2)cc1")
"no"
>>> class_name("Cc1ccc(-c2cc3c(NC(=O)C4CC4)ncnc3o2)cc1 [GW819230X]")
"no"
>>> class_name("O=C(Nc1ncnc2oc(-c3ccc(Cl)cc3)cc12)C1CCCC1")
"no"
>>> class_name("COc1ccc(-c2cc3c(NC(=O)C(C)C)ncnc3o2)cc1")
"yes"
